target_desc: Tyrosine-protein kinase HCK (Homo sapiens) (UniProt P08631)
Sequence (P08631 2-526 limits assumed): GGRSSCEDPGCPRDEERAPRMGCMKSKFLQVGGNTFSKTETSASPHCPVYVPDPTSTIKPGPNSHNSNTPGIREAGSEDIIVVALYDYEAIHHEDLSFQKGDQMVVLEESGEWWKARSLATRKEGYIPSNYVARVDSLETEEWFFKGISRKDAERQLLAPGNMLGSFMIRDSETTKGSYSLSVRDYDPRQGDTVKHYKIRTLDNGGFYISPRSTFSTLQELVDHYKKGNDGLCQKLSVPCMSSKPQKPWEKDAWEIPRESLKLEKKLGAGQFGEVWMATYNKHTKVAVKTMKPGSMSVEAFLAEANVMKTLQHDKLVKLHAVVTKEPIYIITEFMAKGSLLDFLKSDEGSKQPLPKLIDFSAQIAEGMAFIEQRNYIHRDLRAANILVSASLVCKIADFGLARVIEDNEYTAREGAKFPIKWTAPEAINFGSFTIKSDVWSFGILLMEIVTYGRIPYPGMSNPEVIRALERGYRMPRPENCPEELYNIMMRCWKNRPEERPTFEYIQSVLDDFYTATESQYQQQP
conditions_used: at 10 µM
// map residual activity onto a label; ranges low range = under 30%, mid range = from 30% up to 60%, high range = 60% and over

| compound | assigned_class |
| --- | --- |
| CC(C)(C)c1nc2c3ccc(F)cc3c3c(=O)[nH]ccc3c2[nH]1 | mid range |
| CC(C)c1nn(-c2c(Cl)cccc2Cl)c2nc(Cc3ccc(OCCO)cc3)[nH]c(=O)c12 | mid range |
| Oc1cccc(-c2nc(N3CCOCC3)c3oc4ncccc4c3n2)c1 | high range |
| O=c1cc(N2CCOCC2)oc2c(-c3ccccc3)cccc12 | mid range |
| COc1cc2c(cc1OC)-c1n[nH]c(Nc3cccc(F)c3)c1C2 | low range |
| O=C(NC(NC(=S)Nc1ccc(F)c([N+](=O)[O-])c1)C(Cl)(Cl)Cl)C(c1ccccc1)c1ccccc1 (configuration not stated) | mid range |
| COc1ccc(Cl)cc1NC(=O)Nc1cc(C)nc2ccccc12 | mid range |
| Nc1ncnc2[nH]nc(Nc3ccc(F)cc3)c12 | low range |
| NCCNc1ncc(C(N)=O)c(Nc2cccc(C(F)(F)F)c2)n1 | low range |
| c1ccc(-c2cnc(Nc3ccc(OCCN4CCCC4)cc3)s2)cc1 | low range |
| O=c1cc(N2CCOCC2)oc2c1ccc1ccccc12 | high range |
| O=S(=O)(NCCNC/C=C/c1ccc(Br)cc1)c1cccc2cnccc12 | high range |
| CCN1/C(=C/C(C)=O)Sc2ccc(OC)cc21 | high range |
| COc1ccc2c(c1)c(C1=C(c3c[nH]c4ccccc34)C(=O)NC1=O)cn2CCCN(C)C | mid range |
| CN(C)S(=O)(=O)c1ccc2c(c1)/C(=C/c1cc3c([nH]1)CCCC3)C(=O)N2 | low range |
| O=C1NC(=O)c2c1c1c3ccccc3[nH]c1n1cncc21 | mid range |
| NC(=O)Nc1sc(-c2ccc(F)cc2)cc1C(N)=O | low range |
| COc1ccc(CNC(=O)Nc2ncc([N+](=O)[O-])s2)cc1 | low range |
| O=C(c1ccccc1)c1ccc(N2CCOCC2)cc1O | high range |
| COc1ccc(-c2cnc3c(-c4ccsc4)cnn3c2)cc1 | high range |

###

molecules and their reported residual activity
target_desc: Mitogen-activated protein kinase 11 (Homo sapiens)
conditions_used: at 10 µM

| molecule | residual activity (%) |
| --- | --- |
| O=C1C(Cl)=C(N2C(=O)CCC2=O)C(=O)c2ccccc21 | 92 |
| Cn1c2ccccc2c2c3c(c4c5ccccc5n(CCC#N)c4c21)CNC3=O | 100 |
| Nc1ncnc2c1c(-c1ccc(Oc3ccccc3)cc1)cn2C1CCCC1 | 75 |
| O=C(CCCc1ccc(-c2ccccc2F)cc1)Nc1ccc(O)cc1 | 95 |
| O=C1Cc2c([nH]c3ccc([N+](=O)[O-])cc23)-c2ccccc2N1 | 103 |
| O=c1cc(N2CCOCC2)oc2c1ccc1ccccc12 | 101 |
| COc1ccc(-c2cnc3c(-c4ccsc4)cnn3c2)cc1 | 95 |
| COc1cc2nccc(Oc3ccc(NC(=S)NC(=O)c4ccccc4C)cc3)c2cc1OC | 87 |
| NC(=O)c1ccc(-c2nc(-c3ccc4c(c3)OCCO4)c(-c3ccccn3)[nH]2)cc1 | 88 |
| O=C(c1ccccc1)c1ccc(N2CCOCC2)cc1O | 91 |
| O=C1Nc2ccc(Cl)cc2/C1=C/c1cc(Cl)c(O)c(Cl)c1 | 67 |
| O=C(O)/C=C/c1cc(Br)c(Br)c(Br)c1Br | 126 |
| O=c1c(-c2ccc(F)cc2)c(-c2ccncc2)[nH]n1-c1ccc(Cl)cc1 | 5 |
| Fc1ccc(-c2nc3n(c2-c2ccncc2)CCS3)cc1 | 23 |
| O=C1Cc2c([nH]c3ccc(Br)cc23)-c2ccccc2N1 | 89 |
| NC(=O)Nc1sc(-c2ccc(F)cc2)cc1C(N)=O | 68 |
| O=C(NC(NC(=S)Nc1ccc(F)c([N+](=O)[O-])c1)C(Cl)(Cl)Cl)C(c1ccccc1)c1ccccc1 (centres undefined) | 97 |
| COc1cc2c(cc1OC)-c1n[nH]c(Nc3cccc(F)c3)c1C2 | 25 |
| Cn1sc(=O)n(Cc2ccccc2)c1=O | 89 |
| Nc1ncnc2c1cnn2-c1ccccc1 | 85 |
| O=C1NC(=O)c2c1c1c3ccccc3[nH]c1n1cncc21 | 87 |
| CCOC(=O)c1c(C)[nH]c(/C=C2\C(=O)Nc3ccccc32)c1C | 77 |
| NCCNc1ncc(C(N)=O)c(Nc2cccc(C(F)(F)F)c2)n1 | 104 |
| CC(C)(C)c1nc2c3ccc(F)cc3c3c(=O)[nH]ccc3c2[nH]1 | 69 |

// provenance: ChEMBL document CHEMBL2218924
